Here the recorded Perturb-seq pooled growth sgRNA counts, d10 is given for each entry.
system: K562 CRISPRi cells; experiment: Perturb-seq pooled growth measurement (sgRNA counts, growth phenotype γ, relative activity); type: cell-based, human; details: sequencing read counts; 10 days of growth (day twelve after transduction)
Simply state the number, no unit and no words.

Exercise: Perturb-seq pooled growth sgRNA counts, d10 of HSPA9_−_137911079.23-P1P2_04: sgRNA targeting HSPA9, GGAGCTGCGCAATGCGGTGG, SEQ ID NO: 135 (listed as DNA, chemistry not fully specified) on K562 CRISPRi cells?
Solution: 10829

Exercise: Perturb-seq pooled growth sgRNA counts, d10 of GNB2L1_+_180670873.23-P1P2_07: sgRNA targeting GNB2L1, GTGCAAGGCGGGGGCAGGAG, SEQ ID NO: 58 (listed as DNA, chemistry not fully specified) on K562 CRISPRi cells?
Solution: 8738

Continue with the next substance.
Exercise: Perturb-seq pooled growth sgRNA counts, d10 of DUT_+_48624411.23-P1P2_00: sgRNA targeting DUT, GCGAGCGAGGAGACCACCGG, SEQ ID NO: 110 (listed as DNA, chemistry not fully specified) on K562 CRISPRi cells?
Solution: 1570

---

system: K562 CRISPRi cells; test: Perturb-seq pooled growth measurement (sgRNA counts, growth phenotype γ, relative activity); format: cell-based, human; conditions: sequencing read counts; 5 days of growth (day seven after transduction)
readout_type: Perturb-seq pooled growth sgRNA counts, d5
Simply state the number, no unit and no words.

Exercise: Form field: reported Perturb-seq pooled growth sgRNA counts, d5 of non-targeting_00054: non-targeting negative control sgRNA, GGGCCTGGACGAGCCTAAAA, SEQ ID NO: 163 (listed as DNA, chemistry not fully specified) [reference compound]
Solution: 29818

Others:
Exercise: Form field: reported Perturb-seq pooled growth sgRNA counts, d5 of RPS18_+_33239917.23-P1P2_02: sgRNA targeting RPS18, GCTGGGATGCCGCTGGATCA, SEQ ID NO: 42 (listed as DNA, chemistry not fully specified)
Solution: 3404

Exercise: Form field: reported Perturb-seq pooled growth sgRNA counts, d5 of EIF2S1_−_67827080.23-P1P2_02: sgRNA targeting EIF2S1, GAGCGCAGCGCACGCTGAGG, SEQ ID NO: 138 (listed as DNA, chemistry not fully specified)
Solution: 2570

Exercise: Form field: reported Perturb-seq pooled growth sgRNA counts, d5 of BCR_+_23523092.23-P1P2_07: sgRNA targeting BCR, GCGCGCGGGGCTCGTCTCAG, SEQ ID NO: 126 (listed as DNA, chemistry not fully specified)
Solution: 1744

Exercise: Form field: reported Perturb-seq pooled growth sgRNA counts, d5 of GNB2L1_+_180670873.23-P1P2_08: sgRNA targeting GNB2L1, GTGCAAGGTGGCGGCAGGAG, SEQ ID NO: 56 (listed as DNA, chemistry not fully specified)
Solution: 25247
